Please respond with reported melting point for every item in the list.

query: Recorded melting point for CCS(=O)(=O)ON=C(Cl)c1ccc(F)cc1 , please?
result: 39 to 41.5 °C

query: Recorded melting point for CCOC(=O)CCCN(O)C(=O)NCCc1ccc(OC)c(OC)c1 , please?
result: 75 to 76 °C

query: Recorded melting point for CCCCC(=CC(N)C(=O)O)CP(=O)(O)O (stereo not drawn) , please?
result: 186 to 187 °C

* * *

Measurement Kind: melting point

query: Recorded melting point for Cc1ncc(CS)c(COC(=O)c2ccccc2)c1OC(=O)c1ccccc1 , please?
result: 185 to 189 °C

query: Recorded melting point for COc1ccc(C(=O)C2C(=O)N(C(N)=O)c3ccc(Cl)cc32)s1 (stereo not drawn) , please?
result: 180 to 182 °C

query: Recorded melting point for O=C1c2c(O)cccc2C(c2cccs2)c2cccc(O)c21 , please?
result: 181 to 182 °C

query: Recorded melting point for CCCCCCCCCCCCS(=O)(=O)Nc1ccccc1C(=O)Nc1cc(Cl)c2c(c1O)CN(C)C(=O)N2 , please?
result: 183 to 187 °C

query: Recorded melting point for COc1cc2ncc(C#N)c(Nc3ccc(Sc4nccn4C)c(Cl)c3)c2cc1OC , please?
result: 302 to 307 °C

query: Recorded melting point for C[C@@H](S[C@H]1CC[C@H](/C=C/c2ccc(Cl)cc2)CC1)[C@](O)(Cn1cncn1)c1ccc(F)cc1F , please?
result: 64 to 66 °C

query: Recorded melting point for CCCCCOc1cc(C(=O)O)cc([N+](=O)[O-])c1-c1ccccc1 , please?
result: 144 to 146 °C

query: Recorded melting point for COCCNc1cc(Cl)nc(-c2ccccc2)n1 , please?
result: 128 to 130 °C

query: Recorded melting point for O=C(/C=C/c1c(Cl)cccc1Cl)/C=C/c1c(Cl)cccc1Cl , please?
result: 145 to 146 °C

query: Recorded melting point for CCOC(=O)c1cccc(NC(=O)N2CCn3c(c(C(N)=O)c(Cl)c3-c3ccccc3)C2)c1 , please?
result: 126 to 128 °C

query: Recorded melting point for COc1on(C)c(=O)c1-c1ccccc1COc1ccccc1C , please?
result: 90 to 92 °C

query: Recorded melting point for CC(=O)OCc1cc(=O)c(Oc2ccc(Cl)cc2)c(-c2ccc(S(C)(=O)=O)cc2)o1 , please?
result: 115 °C

query: Recorded melting point for CCn1ncc2c(Cl)c3c(nc21)C(=O)c1ccccc1CC3 , please?
result: 156 to 159 °C

query: Recorded melting point for On1nc(Br)c(Cl)c1Br , please?
result: 160 °C

query: Recorded melting point for O=C(N[C@@H](Cc1c[nH]c2ccccc12)C(=O)O)c1ccc(Br)cc1 , please?
result: 162 to 163 °C

query: Recorded melting point for CC(C(=O)c1ccc(F)cc1)N1CCC(O)(Cc2ccccc2)CC1 (stereo not drawn) , please?
result: 120 °C

query: Recorded melting point for O=C(O)c1cn(-c2nccs2)c2c(F)c(F)c(F)cc2c1=O , please?
result: 198 to 200 °C

query: Recorded melting point for CCOC(=O)c1cc2cc(C)cc(NS(=O)(=O)c3cccs3)c2[nH]1 , please?
result: 168 to 169 °C

query: Recorded melting point for CC(=O)N1CN(C(=O)c2c(F)cccc2F)C(=O)N(c2ccc(Cl)cc2)C1 , please?
result: 171 to 172 °C

query: Recorded melting point for Cc1ccc(S(=O)(=O)OCC2COc3cccc4[nH]c(=O)n2c34)cc1 (stereo not drawn) , please?
result: 140 to 142 °C

query: Recorded melting point for COc1ccc(Nc2ccc(C(=O)O)cc2)c2ccccc12 , please?
result: 153 to 154 °C

query: Recorded melting point for N#Cc1ccc(Cc2ccc(OCc3ccccc3)cc2)cc1 , please?
result: 110 to 111 °C

query: Recorded melting point for COc1ccccc1-n1c(=O)[nH]c2c(C(N)=O)nc(-c3ccc4nc(C)[nH]c4c3)nc21 , please?
result: 270 °C

query: Recorded melting point for COc1ccc(C(=O)c2ccc(OCc3nc(-c4ccccc4)oc3C)nc2)c(OC(C)C(=O)O)c1 (stereo not drawn) , please?
result: 162 to 163 °C

query: Recorded melting point for Cc1[nH]cnc1/C=C1\CCc2c(c3ccc(F)cc3n2C)C1=O , please?
result: 290 to 295 °C

query: Recorded melting point for Oc1ccc(-c2ncc3ncc(Cl)cc3n2)cc1 , please?
result: 231 to 232 °C

query: Recorded melting point for C#CCCCCCCCCCCCCCCCCCCCC(=O)OC(C)(C)C , please?
result: 44 to 45 °C

query: Recorded melting point for CCC(C(C)C)C1OC1C(C)C1CCC2C3CCC4=CC(=O)CCC4(C)C3CCC12C (stereo not drawn) , please?
result: 111 to 112 °C

query: Recorded melting point for COc1cc(C(C)NC(=O)OCC2c3ccccc3-c3ccccc32)c([N+](=O)[O-])cc1OCCCC(=O)O (stereo not drawn) , please?
result: 200 to 201 °C

query: Recorded melting point for CCCn1cc(Cc2ccc(C(=O)O)cc2OC)c2cc(CC3CCN(CC)C3=O)ccc21 (stereo not drawn) , please?
result: 94 to 99 °C

query: Recorded melting point for S=C(NCn1nnc2ccccc21)NCn1nnc2ccccc21 , please?
result: 205 to 206 °C

query: Recorded melting point for CCc1nc2c(C)cc(C)nc2n1Cc1ccc(-c2ccccc2-c2c(N)c(=O)c2=O)cc1 , please?
result: 217 °C

query: Recorded melting point for Nc1ccc(Cl)nc1Nc1ccc2c(c1)OCO2 , please?
result: 162 to 163 °C
